Test system: UACC-257 melanoma
Assay: NCI-60 one-dose screen, 48 h
Settings: 10 µM unless noted
The panel holds about 83,000 compounds, 20% with a hit somewhere; the sample as a whole holds those more often. The source made the active and inactive calls. How the source made its calls: active means growth percent below 10; inactive means the rest.
Labels: True for active, False for inactive

| molecule | group-label |
| --- | --- |
| O=C(C1CCCCC1)[C@@H]1[C@]2(C(=O)NC3CCCCC32)[C@@H]2CCCN2[C@@]12C(=O)NC1CCC(Cl)CC12 (some centres undefined) | True |
| CCCCC#Cc1c(I)n(C)c(=O)[nH]c1=O | True |
| CCN1C2CCC1/C(=C\c1ccc(F)cc1)C(=O)/C2=C/c1ccc(F)cc1 | False |
| [2H]C([2H])([2H])Oc1ccc(F)cc1/C=C/C(=O)/C=C(O)/C=C/c1cc(F)ccc1OC([2H])([2H])[2H] | False |
| O=C1/C=C/[C@@H](O)[C@@H]2C[C@@H](O)C[C@H]2/C=C/CCC[C@@H](O)CCO1 | False |
| Cc1ccc(/C=C/C(=O)Nc2ncc(Cc3ccc(F)cc3)s2)o1 | False |
| O=C1c2ccccc2C(=O)c2c1c(C(=O)NCc1ccccc1)c1ccccn21 | False |
| CCCCNC(=O)Oc1ccc(/C(=C(/C)Cc2ccc(OC)cc2)c2ccc(OCCN3CCCCCC3)cc2)cc1 | False |
| Clc1c(Cl)[n+](Cc2ccc3ccccc3c2)cn1Cc1ccc2ccccc2c1 | True |
